This collection of values is drawn from paper PMC7352216.

Test method notes: Pharmacokinetic study
Format: in vivo, SD rats
Experimental setup: SD, rat, plasma; IV 5 mg/kg, male
Measured property: C0 (ng/mL)
Number in ng/mL, nothing else.

**Query** Need C0 of CN1CCN(Cc2ccc(-c3cnc(N4CCOC(Cn5nnc6ncc(-c7cnn(C)c7)nc65)C4)nc3)cc2)CC1 (stereo not shown) , thanks.
**Result** 3520

###

Test method notes: Pharmacokinetic study
Type: in vivo, SD rats
Experimental setup: SD, rat, plasma; PO 50 mg/kg, male
Measured property: Cmax (ng/mL)
Number in ng/mL, nothing else.

**Query** Need Cmax of CN1CCN(Cc2ccc(-c3cnc(N4CCOC(Cn5nnc6ncc(-c7cnn(C)c7)nc65)C4)nc3)cc2)CC1 (stereo not shown) [ABN401] , thanks.
**Result** 1430

###

Test method notes: Pharmacokinetic study
Format: in vivo, beagle dogs
Experimental setup: beagle, dog, plasma; IV 2 mg/kg, male
Measured property: half-life (min)
Number in min, nothing else.

**Query** Need half-life of CN1CCN(Cc2ccc(-c3cnc(N4CCOC(Cn5nnc6ncc(-c7cnn(C)c7)nc65)C4)nc3)cc2)CC1 (stereo not shown) , thanks.
**Result** 442

###

Test method notes: in vivo
Experimental setup: BALB/c-nude, mouse, tumor, po, 30 mg/kg
Measured property: Cmax
# include the unit after the value

**Query** Need Cmax of CN1CCN(Cc2ccc(-c3cnc(N4CCOC(Cn5nnc6ncc(-c7cnn(C)c7)nc65)C4)nc3)cc2)CC1 (stereo not shown) , thanks.
**Result** 2950 ng/mL

###

Test method notes: Pharmacokinetic study
Assay type: in vivo, SD rats
Experimental setup: SD, rat, plasma; PO 5 mg/kg, male
Measured property: Cmax (µg/mL)
Number in µg/mL, nothing else.

**Query** Need Cmax of CN1CCN(Cc2ccc(-c3cnc(N4CCOC(Cn5nnc6ncc(-c7cnn(C)c7)nc65)C4)nc3)cc2)CC1 (stereo not shown) , thanks.
**Result** 0.458

###

Test method notes: in vivo
Experimental setup: BALB/c-nude, mouse, EBC-1 tumor tissue / plasma, oral, 10 mg/kg
Measured property: Kp
Just the number.

**Query** Need Kp of CN1CCN(Cc2ccc(-c3cnc(N4CCOC(Cn5nnc6ncc(-c7cnn(C)c7)nc65)C4)nc3)cc2)CC1 (stereo not shown) [ABN401] , thanks.
**Result** 3.71

###

Test method notes: in vivo
Experimental setup: BALB/c-nude, mouse, plasma, po, 10 mg/kg
Measured property: CL/F (mL/min/kg)
Number in mL/min/kg, nothing else.

**Query** Need CL/F of CN1CCN(Cc2ccc(-c3cnc(N4CCOC(Cn5nnc6ncc(-c7cnn(C)c7)nc65)C4)nc3)cc2)CC1 (stereo not shown) [ABN401] , thanks.
**Result** 51.8

###

Test method notes: Pharmacokinetic study
Assay type: in vivo, SD rats
Experimental setup: SD, rat, plasma; IV 5 mg/kg, male
Measured property: half-life (h)
Number in h, nothing else.

**Query** Need half-life of CN1CCN(Cc2ccc(-c3cnc(N4CCOC(Cn5nnc6ncc(-c7cnn(C)c7)nc65)C4)nc3)cc2)CC1 (stereo not shown) , thanks.
**Result** 3.33

###

Test method notes: Pharmacokinetic study
Assay type: in vivo, cynomolgus monkeys
Experimental setup: cynomolgus monkey, plasma; PO 10 mg/kg capsule, male
Measured property: Tmax (h)
Number in h, nothing else.

**Query** Need Tmax of CN1CCN(Cc2ccc(-c3cnc(N4CCOC(Cn5nnc6ncc(-c7cnn(C)c7)nc65)C4)nc3)cc2)CC1 (stereo not shown) [ABN401] , thanks.
**Result** 3.3

###

Test method notes: Pharmacokinetic study
Format: in vivo, beagle dogs
Experimental setup: beagle, dog, plasma; PO 2 mg/kg, male; read-out: F
Measured property: bioavailability (%)
Number in %, nothing else.

**Query** Need bioavailability of CN1CCN(Cc2ccc(-c3cnc(N4CCOC(Cn5nnc6ncc(-c7cnn(C)c7)nc65)C4)nc3)cc2)CC1 (stereo not shown) , thanks.
**Result** 27.4

###

Test method notes: Pharmacokinetic study
Type: in vivo, beagle dogs
Experimental setup: beagle, dog, plasma; PO 2 mg/kg, male
Measured property: Tmax (h)
Number in h, nothing else.

**Query** Need Tmax of CN1CCN(Cc2ccc(-c3cnc(N4CCOC(Cn5nnc6ncc(-c7cnn(C)c7)nc65)C4)nc3)cc2)CC1 (stereo not shown) [ABN401] , thanks.
**Result** 1

###

Test method notes: in vivo
Experimental setup: BALB/c-nude, mouse, plasma, po, 10 mg/kg
Measured property: AUC(0-inf) (ng·h/mL)
Number in ng·h/mL, nothing else.

**Query** Need AUC(0-inf) of CN1CCN(Cc2ccc(-c3cnc(N4CCOC(Cn5nnc6ncc(-c7cnn(C)c7)nc65)C4)nc3)cc2)CC1 (stereo not shown) , thanks.
**Result** 3220

###

Test method notes: Pharmacokinetic study
Assay type: in vivo, SD rats
Experimental setup: SD, rat, plasma; PO 5 mg/kg, male; read-out: F
Measured property: bioavailability

**Query** Need bioavailability of CN1CCN(Cc2ccc(-c3cnc(N4CCOC(Cn5nnc6ncc(-c7cnn(C)c7)nc65)C4)nc3)cc2)CC1 (stereo not shown) [ABN401] , thanks.
**Result** 42.1%

###

Test method notes: Pharmacokinetic study
Type: in vivo, SD rats
Experimental setup: SD, rat, plasma; PO 5 mg/kg, female; read-out: F
Measured property: bioavailability (%)
Number in %, nothing else.

**Query** Need bioavailability of CN1CCN(Cc2ccc(-c3cnc(N4CCOC(Cn5nnc6ncc(-c7cnn(C)c7)nc65)C4)nc3)cc2)CC1 (stereo not shown) [ABN401] , thanks.
**Result** 56.2

###

Test method notes: in vivo
Experimental setup: mouse, tumor tissue, oral, 30 mg/kg
Measured property: concentration at 2 h (ng/mL)
Number in ng/mL, nothing else.

**Query** Need concentration at 2 h of CN1CCN(Cc2ccc(-c3cnc(N4CCOC(Cn5nnc6ncc(-c7cnn(C)c7)nc65)C4)nc3)cc2)CC1 (stereo not shown) [ABN401] , thanks.
**Result** 2990

###

Test method notes: Pharmacokinetic study
Assay type: in vivo, cynomolgus monkeys
Experimental setup: cynomolgus monkey, plasma; PO 10 mg/kg capsule, male
Measured property: Cmax
# include the unit after the value

**Query** Need Cmax of CN1CCN(Cc2ccc(-c3cnc(N4CCOC(Cn5nnc6ncc(-c7cnn(C)c7)nc65)C4)nc3)cc2)CC1 (stereo not shown) [ABN401] , thanks.
**Result** 10.8 ng/mL

###

Test method notes: Pharmacokinetic study
Type: in vivo, beagle dogs
Experimental setup: beagle, dog, plasma; PO 2 mg/kg, female
Measured property: MRT last (h)
Number in h, nothing else.

**Query** Need MRT last of CN1CCN(Cc2ccc(-c3cnc(N4CCOC(Cn5nnc6ncc(-c7cnn(C)c7)nc65)C4)nc3)cc2)CC1 (stereo not shown) , thanks.
**Result** 9.15

###

Test method notes: Pharmacokinetic study
Format: in vivo, beagle dogs
Experimental setup: beagle, dog, plasma; PO 5 mg/kg, male; read-out: F
Measured property: bioavailability

**Query** Need bioavailability of CN1CCN(Cc2ccc(-c3cnc(N4CCOC(Cn5nnc6ncc(-c7cnn(C)c7)nc65)C4)nc3)cc2)CC1 (stereo not shown) , thanks.
**Result** 34.5%

###

Test method notes: Pharmacokinetic study
Format: in vivo, SD rats
Experimental setup: SD, rat, plasma; PO 50 mg/kg, male
Measured property: MRT last (h)
Number in h, nothing else.

**Query** Need MRT last of CN1CCN(Cc2ccc(-c3cnc(N4CCOC(Cn5nnc6ncc(-c7cnn(C)c7)nc65)C4)nc3)cc2)CC1 (stereo not shown) , thanks.
**Result** 8.28

###

Test method notes: Plasma Protein Binding Assay (rapid equilibrium dialysis)
Type: in vitro ADME
Experimental setup: mouse, 37 °C, RED, read-out: fup (free fraction in the mouse plasma)
Measured property: fraction unbound at 4 h, 1 µM
Just the number.

**Query** Need fraction unbound at 4 h, 1 µM of CN1CCN(Cc2ccc(-c3cnc(N4CCOC(Cn5nnc6ncc(-c7cnn(C)c7)nc65)C4)nc3)cc2)CC1 (stereo not shown) , thanks.
**Result** 0.07

###

Test method notes: Pharmacokinetic study
Type: in vivo, cynomolgus monkeys
Experimental setup: cynomolgus monkey, plasma; PO 1 mg/kg capsule, male
Measured property: Tmax (h)
Number in h, nothing else.

**Query** Need Tmax of CN1CCN(Cc2ccc(-c3cnc(N4CCOC(Cn5nnc6ncc(-c7cnn(C)c7)nc65)C4)nc3)cc2)CC1 (stereo not shown) , thanks.
**Result** 1.7

###

Test method notes: Pharmacokinetic study
Format: in vivo, SD rats
Experimental setup: SD, rat, plasma; PO 5 mg/kg, female
Measured property: Cmax (ng/mL)
Number in ng/mL, nothing else.

**Query** Need Cmax of CN1CCN(Cc2ccc(-c3cnc(N4CCOC(Cn5nnc6ncc(-c7cnn(C)c7)nc65)C4)nc3)cc2)CC1 (stereo not shown) [ABN401] , thanks.
**Result** 619
